- Tested on: SB.mhdgc-1
- EXPERIMENT: viability at highest tested concentration (MAXR) relative to DMSO; higher = less cytotoxic
- PARTICULARS: SB.mhdgc-1 (hereditary c.1380delA CDH1 gastric cancer)
Counter-ions that a name gives are not always drawn.
Criterion: viability strictly under 70%. Met: t. Not met: f.

[
  {
    "COMPOUND": "CCN1\\C=C(C(O)=O)/C(=O)C2=C1C(=C(N3CCNC(C)C3)C(=C2)F)F (stereo unspecified) [Lomefloxacin hydrochloride] (top concentration 46.0829 µM)",
    "LABEL_CLASS": "f"
  },
  {
    "COMPOUND": "COc1nc(N)nc2c1ncn2[C@@H]1O[C@H](CO)[C@@H](O)[C@@H]1O [Nelarabine] (top concentration 46.0829 µM)",
    "LABEL_CLASS": "f"
  },
  {
    "COMPOUND": "N[C@@H](Cc1ccc(N(CCCl)CCCl)cc1)C(=O)O [Melphalan] (top concentration 46.0829 µM)",
    "LABEL_CLASS": "t"
  },
  {
    "COMPOUND": "CCN(CC)CCN1C(=O)\\C(=N/C2=CC=CC=C12)CC3=CC=C(OC)C=C3 [Caroverine hydrochloride] (top concentration 46.0829 µM)",
    "LABEL_CLASS": "f"
  }
]

Now consider the entry below.
A record lists C#C[C@]1(O)CC[C@H]2[C@@H]3CCc4cc(OC)ccc4[C@H]3CC[C@@]21C [Mestranol] (top concentration 46.0829 µM) . Is its viability below 70%?
t
